The measured values listed here are drawn from PubChem BioAssay.

- Test name: FRG1 promoter luciferase signal modulators, primary screen, FRG1 inhibition for FSHD, cell-based, C2C12 myotubes, firefly/Renilla luciferase, luminescence (AID 1084)
- Test settings: higher = more signal, called active from +8 up or from −8 down
Values of z-score greater than or equal to 0.5 map to TRUE; values below map to FALSE.

Below, 8 compounds whose answers are already recorded.
>  <Compound>
COc1ccc(CCN2C(=O)[C@@]3(c4ccc([N+](=O)[O-])cc4)CC(=O)N(C4CCCCC4)[C@@H]3c3ccc(CO)cc32)cc1

>  <Qualitative label>
TRUE

$$$$
>  <Compound>
C=CCN1C(=O)[C@]2(O[C@H](CCO)[C@@H]([Si](C)(C)c3ccc(OC)cc3)[C@@H]2C)c2cc(N3C(=O)c4cccc5cccc3c45)ccc21

>  <Qualitative label>
FALSE

$$$$
>  <Compound>
C=C(CCCC)/C(=C/C[C@@H](OC(C)=O)c1ccccc1OCCO)c1cnc2ccccc2c1

>  <Qualitative label>
FALSE

$$$$
>  <Compound>
C#CCN(Cc1ccccc1Br)C(/C=C/c1ccccc1)CO (stereo not given)

>  <Qualitative label>
FALSE

$$$$
>  <Compound>
CC(C)(C)OC(=O)CC[C@@]1(C(N)=O)N=C(c2ccc(OCCCO)cc2)O[C@@H]1c1ccccc1

>  <Qualitative label>
FALSE

$$$$
>  <Compound>
COCCCNC(=O)[C@@]1(Cc2ccccc2)N=C(c2ccc(OCCCO)cc2)O[C@H]1c1ccccc1

>  <Qualitative label>
FALSE

$$$$
>  <Compound>
COCCOC(=O)N1C(=O)[C@@]2(c3cc(C#CCCO)ccc31)[C@H](C(=O)N1CCc3cc(OC)c(OC)cc3C1)[C@H]1C(=O)O[C@H](c3ccccc3)[C@H](c3ccccc3)N1[C@@H]2c1ccc(O)cc1

>  <Qualitative label>
TRUE

$$$$
>  <Compound>
O=C1[C@H]2C=C(Br)[C@H](C[C@@H]2c2ccccc2)[C@@]12CO2

>  <Qualitative label>
TRUE

$$$$

Reported z-score reaches at least 0.5 for COc1ccc(C(O)C2C=CC3C(=O)NC(=O)C3N2Nc2ccccn2)c2ccccc12 (stereo not given) ?
TRUE

Reported z-score reaches at least 0.5 for COc1ccc(C#Cc2ccc3c(c2)[C@]2(C(=O)N3)[C@H](c3ccccc3OCCO)N3[C@H](c4ccccc4)[C@H](c4ccccc4)OC(=O)[C@H]3[C@@H]2C(=O)O)cc1 ?
FALSE

Reported z-score reaches at least 0.5 for CCCCC=C[C@@H](NC(=O)Oc1cccc(C(F)(F)F)c1)c1ccccc1 ?
FALSE

Reported z-score reaches at least 0.5 for O=C1O[C@H](c2ccccc2)[C@H](c2ccccc2)N2[C@H]1[C@@H](C(=O)NC[C@H](O)c1ccccc1)[C@]1(C(=O)Nc3ccccc31)[C@H]2c1ccc(OCCO)cc1 ?
TRUE

Reported z-score reaches at least 0.5 for O=C(NCc1ccccc1)[C@@]1(CCS(=O)(=O)c2ccccc2)N=C(c2ccc(OCCCO)cc2)O[C@H]1c1ccccc1 ?
FALSE

Reported z-score reaches at least 0.5 for CN1C(=O)C2C=CC(C(O)c3ccccc3)N(Nc3ccccc3)C2C1=O (stereo not given) ?
TRUE

Reported z-score reaches at least 0.5 for COCCCN1C(=O)[C@@]2(Cc3ccccc31)c1ccccc1C(=O)N(Cc1ccccc1C(F)(F)F)[C@H]2c1ccc(CO)cc1 ?
FALSE
